Tested on: WT MEF EVs
assay.info: Quantitative LC-MS/MS proteomics of EVs from ISRIB-treated WT MEF cultures
Type: cell-based, mouse
Parameters: key: YES = protein abundance effect similar to DYT/WT
condition.info: EV protein abundance, WT + ISRIB vs WT, direction compared with DYT/WT
metric.name: ISRIB and DYT Parallel Direction

molecule	reported.value
Pbdc1 (protein, UniProt Q9D0B6 1-198, looked up) Protein PBDC1: MDAAGESEEPVSGEALSIAHALSHPPESYGNDPDIEMAWAIRAMQHAEVYYKLISSVDPQFLKLTKVDDQIYSEFREIFETLRVDVLDPEELKSESAKEKWRPFCLKFEGIVEDYNYGTLLRLDCSQGYTEENTIFAPRIQFFAIEIARNREGYNKAVSVSIQDKEGEEGAGNKEEAAEKGADSGGEKEEGANREGEK	YES
Alad (protein, UniProt P10518 1-330, looked up) Delta-aminolevulinic acid …: MHHQSVLHSGYFHPLLRSWQTAASTVSASNLIYPIFVTDVPDDVQPIASLPGVARYGVNQLEEMLRPLVEAGLRCVLIFGVPSRVPKDEQGSAADSEDSPTIEAVRLLRKTFPSLLVACDVCLCPYTSHGHCGLLSENGAFLAEESRQRLAEVALAYAKAGCQVVAPSDMMDGRVEAIKAALLKHGLGNRVSVMSYSAKFASCFYGPFRDAAQSSPAFGDRRCYQLPPGARGLALRAVARDIQEGADMLMVKPGLPYLDMVREVKDKHPELPLAVYQVSGEFAMLWHGAQAGAFDLRTAVLETMTAFRRAGADIIITYFAPQLLKWLKEE	YES
